experiment: modulators of MEP2-GFP levels in yeast, confirmation, S. cerevisiae, flow cytometry GFP, cherry picks (AID 2272);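 further: ratio of well signal to plate DMSO mean so 100% equals DMSO level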; details: S. cerevisiae MEP2-GFP strain, 3 h, at 10 µM
Activity calls are given as the source filed them.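 How the source made its calls: active means GFP response above 150% of the DMSO control; inconclusive means Fewer than 70 cells counted for a yeast strain; inactive means the rest.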
Give one outcome, nothing more. List: active, inactive

Answered examples (2):
Cc1cc(-c2csc3nc[nH]c(=S)c23)cc(C)c1C = inactive
Cc1ccccc1C(=O)Nc1cccc(C#N)c1 = inactive

Per the records of this test, what outcome belongs to Cc1cc(C)n2nc(C(=O)NC(c3ccccc3)c3ccccc3)nc2n1 ? inactive

Per the records of this test, what outcome belongs to O=c1[nH]c(CN2CCCCC2)nc2c1C1(CCCCC1)Cc1ccccc1-2 ? inactive

Per the records of this test, what outcome belongs to Cc1ccc(/C=C/C(=O)NC2CCCCCCC2)o1 ? inactive

Per the records of this test, what outcome belongs to Cc1ccnc(N2C(=O)c3cccc4c([N+](=O)[O-])ccc(c34)C2=O)c1 ? active

Per the records of this test, what outcome belongs to Cc1[nH]c(-c2ccccn2)nc(=S)c1Cl ? inactive

Per the records of this test, what outcome belongs to CN1C(=O)c2cccc3c(Cl)ccc(c23)C1=O ? inactive

Per the records of this test, what outcome belongs to Cc1cccc(OCCN2CSC(=S)N(C)C2)c1 ? inactive

Per the records of this test, what outcome belongs to O=[N+]([O-])/C=C/c1c(OCc2ccccc2)ccc2ccccc12 ? inactive

Per the records of this test, what outcome belongs to COc1ccc(OC)c(C2C(C(=O)Nc3nc4ccccc4s3)=C(C)NC3=C2C(=O)CCC3)c1 (configuration not stated) ? inactive

Per the records of this test, what outcome belongs to Cc1cc(NCCOCCO)n2ncc(-c3ccc(Cl)cc3)c2n1 ? inactive

====

Field: inhibition. Provide a value for each of the compounds that follow.
target: AP-2 complex subunit beta (Homo sapiens) (UniProt P63010); test: inhibitors of arrestin peptide binding to AP2, pilot screen, biochemical, validation set, GST-AP2 beads, flow cytometry (AID 504541); details: FITC arrestin peptide, at 10 µM, stronger effect = higher value, AP2 beta2 appendage fragment, R879A mutant;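 further: AP2 carries R879A mutation and is captured from E. coli lysate; bead-bound FITC arrestin peptide fluorescence measuring arrestin peptide binding to AP2; 0% = DMSO wells and 100% = excess unlabeled arrestin peptide control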
Sequence (P63010 whole entry, looked up, the tested form may be a part, one chain of several): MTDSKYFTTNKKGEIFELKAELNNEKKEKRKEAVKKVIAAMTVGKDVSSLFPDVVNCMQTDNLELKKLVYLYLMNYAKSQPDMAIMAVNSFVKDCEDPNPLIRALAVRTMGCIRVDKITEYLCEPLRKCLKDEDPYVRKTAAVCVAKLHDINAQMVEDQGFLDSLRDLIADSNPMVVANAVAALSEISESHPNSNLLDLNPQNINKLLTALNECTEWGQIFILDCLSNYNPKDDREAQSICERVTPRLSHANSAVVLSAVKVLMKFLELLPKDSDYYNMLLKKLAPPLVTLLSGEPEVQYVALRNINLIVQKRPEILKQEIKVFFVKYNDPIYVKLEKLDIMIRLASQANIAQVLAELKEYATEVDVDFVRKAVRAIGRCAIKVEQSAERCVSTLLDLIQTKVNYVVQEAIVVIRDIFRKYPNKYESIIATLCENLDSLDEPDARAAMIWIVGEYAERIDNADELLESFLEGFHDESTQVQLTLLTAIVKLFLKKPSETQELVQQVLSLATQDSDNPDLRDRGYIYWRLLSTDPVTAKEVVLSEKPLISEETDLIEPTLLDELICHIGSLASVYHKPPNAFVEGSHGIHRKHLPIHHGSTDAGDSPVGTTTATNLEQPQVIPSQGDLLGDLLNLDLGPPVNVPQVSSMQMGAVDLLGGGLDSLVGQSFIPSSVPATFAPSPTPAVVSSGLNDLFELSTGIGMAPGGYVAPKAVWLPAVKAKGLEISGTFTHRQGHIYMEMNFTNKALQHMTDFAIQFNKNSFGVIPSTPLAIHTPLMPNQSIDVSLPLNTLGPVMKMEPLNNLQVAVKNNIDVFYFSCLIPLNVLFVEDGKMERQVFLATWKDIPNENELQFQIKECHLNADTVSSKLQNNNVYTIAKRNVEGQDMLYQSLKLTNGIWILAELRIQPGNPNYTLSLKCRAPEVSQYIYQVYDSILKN
Answers are plain numbers, in %.

Below are worked cases with known answers.
O=c1[nH]c(=O)n([C@H]2C[C@H](O)[C@@H](CO)O2)cc1F = 1.52
CC(C)Cc1cc(C(=O)N2CCC(N3CCC(C(=O)N4CCCC4)CC3)CC2)n[nH]1 = 3.03
CCC1(c2ccccc2)C(=O)NCNC1=O = 13.7
Cn1c2c(c(=O)[nH]c1=O)C(c1ccc(O)cc1)C1=C(N2)c2ccccc2C1=O (stereo not given) = 8.12
O=c1cc(Cn2ccnc2)c2cc3c(cc2o1)CCC3 = 8.12
CN1CCC(OC(c2ccccc2)c2ccccc2)CC1 = -2.62
CCOc1ccc(CC2c3cc(OCC)c(OCC)cc3CCN2C(=O)CN2CCN(C)CC2)cc1OCC (stereo not given) = 5.19
CC(=O)Oc1ccc2occ(/C=N/c3cc(=O)[nH]c(=S)[nH]3)c(=O)c2c1 = 25.5

Each compound below has a reported value. Please supply its inhibition.
1. O=C(O)C[C@@H](O)C(=O)O
2. CC(=O)OCC(OC(C)=O)C(OC(C)=O)C(OC(C)=O)C(=O)Nc1cccc(C)c1 (stereo not given)

[-10.9, -4.4]

====

Field: GFP response vs DMSO. Provide a value for each of the molecules that follow.
assay: RPL19A-GFP modulators, yeast TOR pathway, confirmation, cell-based, S. cerevisiae, flow cytometry, cherry picks, mother/daughter gates (AID 2270); conditions: S. cerevisiae RPL19A-GFP strain, 3 h, measured here: daughter cell gate, at 10 µM, stronger effect = lower value, 100 = same GFP as DMSO wells
Answers are plain numbers, in %.

CCCN(CCC)S(=O)(=O)c1ccc(C(=O)Nc2nnc(-c3cc(OC)cc(OC)c3)o2)cc1 = 99.4
c1ccc(-c2cccc(-c3ccccn3)n2)nc1 = 82.8
CC(=O)Oc1ccc(N2C(=O)C3C4C=CC(CO)(O4)C3C2=O)cc1 (stereo not given) = 104
CCOc1ccc(S(=O)(=O)n2ccnc2C)cc1 = 100

Each molecule below has a reported value. Please supply its GFP response vs DMSO.
1. CCc1ccccc1OCc1nnc(N)s1
2. CCc1ccc(-c2csc(NC(=O)COC(=O)CCc3nc4ccccc4s3)n2)cc1
3. COC(=O)Nc1c(-c2ccccc2)nc2ccccn12
4. O=[N+]([O-])c1ccc(Sc2ccccc2)nc1
5. COc1ccc2c(c1)c(/C=C/c1cc[n+](C)cc1)cn2C
6. O=[N+]([O-])c1cc(S(=O)(=O)C(F)(F)F)ccc1Sc1nc2ccccc2s1
7. CCOC(=O)c1ccc(NC(=O)CCc2nc(-c3ccccc3)no2)cc1

[98.8, 102, 98.1, 97.3, 107, 95.1, 97]

Each molecule below has a reported value. Please supply its GFP response vs DMSO.
1. Oc1ccc(-c2csc(-c3ccccc3)n2)cc1O
2. CCn1c(=O)c(C(=O)Nc2nc3ccccc3[nH]2)c(O)c2ccccc21
3. O=C(NNC(=O)C1CCCCC1)C(=O)NC1CCCCC1

[93.2, 87.3, 99.8]

====

assay: LAP4-GFP expression modulators in yeast, confirmation, cell-based, cherry picks, flow cytometry, mother/daughter gates (AID 2271);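 further: ratio of sample to DMSO plate mean so 100% equals DMSO level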; details: S. cerevisiae LAP4-GFP strain, 3 h, at 10 µM, 100 means same as DMSO control
Calls of active or inactive are those of the source.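 How the source made its calls: active means GFP response above 150% of the DMSO control; inconclusive means fewer than 70 events counted in any yeast strain; inactive means the rest.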
Give one outcome, nothing more. List: T for active, F for inactive

Answered examples (8):
O=C1c2ccsc2SCCN1Cc1ccccc1 = F
CCCC(=O)Nc1ccc(NC(=O)c2cc3ccccc3o2)c(OC)c1 = F
Cc1cc(NCCN2CCOCC2)n2nc(C)c(-c3ccc(Cl)cc3)c2n1 = F
CC1=C(C)/C(=N\OS(=O)(=O)c2ccccc2)C=CC1=O = T
Cc1c(Br)c(O)c(Br)c2sc(=O)oc12 = F
COc1ccc(OC)c(S(=O)(=O)N2Cc3ccccc3CC2C(=O)O)c1 (stereo not given) = F
Cc1cc(=O)oc2cc(OC(C)C(=O)NC3CCCC3)ccc12 (stereo not given) = F
O=C(N/N=C/c1c(Cl)cccc1Cl)c1cccc(F)c1 = F

Per the records of this test, what outcome belongs to Cc1ccc(S(=O)(=O)N(Cc2ccc(F)cc2)Cc2ccco2)cc1 ? F

Per the records of this test, what outcome belongs to Cc1ccc(NC(=S)c2nc3ccccc3[nH]2)cc1 ? F

Per the records of this test, what outcome belongs to Clc1ccc(N=c2ssnc2Cl)cc1 ? T

Per the records of this test, what outcome belongs to O=C(CN1CCN(Cc2ccccc2Cl)C1=O)NC1CCCCCCC1 ? F

Per the records of this test, what outcome belongs to CCc1nnc(NC(=O)c2ccc(S(=O)(=O)N(CC(C)C)CC(C)C)cc2)o1 ? F

Per the records of this test, what outcome belongs to COc1cccc(-c2nnc(NC(=O)c3ccc(S(=O)(=O)N4CC(C)OC(C)C4)cc3)o2)c1 (stereo not given) ? F

Per the records of this test, what outcome belongs to O=C(N/N=C/c1ccccc1Cl)c1ccc(F)cc1 ? F

Per the records of this test, what outcome belongs to COc1ccc(CC2=CC(=O)c3ccccc3C2=O)cc1 ? F

Per the records of this test, what outcome belongs to COc1ccc(N2C(=O)C(Cl)=C(NCc3ccccc3)C2=O)cc1 ? F

Per the records of this test, what outcome belongs to Cc1cccc2nc(-c3cccnc3)c(NCCC(C)C)n12 ? F

Per the records of this test, what outcome belongs to O=C(Nc1ccc(NC(=O)c2cc3ccccc3o2)cc1)c1ccco1 ? F

Per the records of this test, what outcome belongs to COC(=O)Cn1nc(-c2ccccc2)c2ccccc21 ? F

Per the records of this test, what outcome belongs to Cc1ccc(CS(=O)(=O)c2ncc(Cl)c(C(=O)Nc3nnc(C(C)C)s3)n2)cc1 ? F

Per the records of this test, what outcome belongs to CCOc1ccc(CNC(=O)CCC(=O)N2Cc3cccc(OC)c3Oc3ncccc32)cc1 ? F

Per the records of this test, what outcome belongs to CCC(=O)Nc1nc(C)c(-c2csc(Nc3cccc(C(=O)O)c3)n2)s1 ? F

Per the records of this test, what outcome belongs to CCc1nnc(NC(=O)c2nc(S(=O)(=O)Cc3ccc(C)cc3)ncc2Cl)s1 ? F

Per the records of this test, what outcome belongs to CC1CN(c2nc3ccccn3c(=O)c2/C=C(\C#N)C(N)=O)CC(C)O1 (stereo not given) ? F

====

Field: GFP response vs DMSO. Provide a value for each of the compounds that follow.
assay: RPL19A-GFP modulators, yeast TOR pathway, confirmation, cell-based, S. cerevisiae, flow cytometry, cherry picks, mother/daughter gates (AID 2270); conditions: S. cerevisiae RPL19A-GFP strain, 3 h, at 10 µM, stronger effect = lower value, 100 = same GFP as DMSO wells
Active and inactive are the calls of the source.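 The calls were made as follows: active = GFP response below 50% of the DMSO control; inconclusive = fewer than 70 events counted for a yeast strain; inactive = the rest.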

Below are worked cases with known answers.
COc1ccccc1NC(=O)c1ccc([N+](=O)[O-])o1 = 102% (inactive)
Cc1cc(C)c(C)c(S(=O)(=O)ON2C(=O)c3ccccc3C2=O)c1C = 103% (inactive)
CCOC(=O)C1=C(Cc2ccc(F)cc2)C(=O)c2ccccc2C1=O = 97.8% (inactive)
Cc1ccc(-c2csc3ncn(Cc4ccc(C(=O)O)cc4)c(=O)c23)cc1C = 98.8% (inactive)
COc1cc(/C=N/Nc2nc(C)cc(=O)[nH]2)ccc1O = 100% (inactive)
CCCOc1ccc(C(=O)NNC(=S)NC(=O)c2ccco2)cc1 = 124% (inactive)

Query compound follows.
Supply GFP response vs DMSO value. Item: CCc1nnc(NC(=O)c2ccc(S(=O)(=O)N(CC)Cc3ccccc3)cc2)o1 98.4% (inactive)
